- ASSAYED TARGET: ORF1110 Galf-ase (ORF1110 protein) (Streptomyces sp. JHA19, UniProt A0A0K2SRV3)
- Construct: recombinant from E. coli BL21(DE3)CodonPlus, pET50b, N-terminal 2xHis6 and Nus tags (cut by HRV3C for TLC only); ORF 786 aa; GH2 with C-terminal AbfB domain
- Sequence (A0A0K2SRV3 46-786): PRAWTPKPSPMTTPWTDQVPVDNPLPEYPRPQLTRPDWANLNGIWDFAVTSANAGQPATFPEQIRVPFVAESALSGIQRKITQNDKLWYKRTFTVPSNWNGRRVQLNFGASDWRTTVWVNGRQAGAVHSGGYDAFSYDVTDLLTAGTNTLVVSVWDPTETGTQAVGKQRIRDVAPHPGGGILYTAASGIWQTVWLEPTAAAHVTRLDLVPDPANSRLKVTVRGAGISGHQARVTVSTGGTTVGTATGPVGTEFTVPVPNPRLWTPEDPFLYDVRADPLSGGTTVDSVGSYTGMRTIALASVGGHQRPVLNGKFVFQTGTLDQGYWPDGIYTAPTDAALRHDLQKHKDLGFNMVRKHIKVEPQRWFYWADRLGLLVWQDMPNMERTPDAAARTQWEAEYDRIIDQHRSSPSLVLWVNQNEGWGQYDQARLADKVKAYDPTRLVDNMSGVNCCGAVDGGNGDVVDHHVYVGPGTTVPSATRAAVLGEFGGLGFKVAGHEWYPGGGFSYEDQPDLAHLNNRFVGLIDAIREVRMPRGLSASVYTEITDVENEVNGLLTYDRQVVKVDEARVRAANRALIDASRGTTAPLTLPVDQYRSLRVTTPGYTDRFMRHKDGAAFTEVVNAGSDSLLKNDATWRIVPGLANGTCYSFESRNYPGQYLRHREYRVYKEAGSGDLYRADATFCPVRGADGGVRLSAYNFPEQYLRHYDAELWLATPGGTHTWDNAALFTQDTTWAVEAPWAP
- TEST NAME: inhibition of pNP-β-D-Galf hydrolysis, pNP absorbance at […] nm
MEASURED ATTRIBUTE: pKi
Schema: pKi number; meaning minus log10 of the concentration expressed in molar units.

# lookup: pKi of O=C1O[C@@H](CO)[C@H](O)[C@H]1O
1.29
